Molecular target: UniProt:P41968
Sequence (P41968 whole entry): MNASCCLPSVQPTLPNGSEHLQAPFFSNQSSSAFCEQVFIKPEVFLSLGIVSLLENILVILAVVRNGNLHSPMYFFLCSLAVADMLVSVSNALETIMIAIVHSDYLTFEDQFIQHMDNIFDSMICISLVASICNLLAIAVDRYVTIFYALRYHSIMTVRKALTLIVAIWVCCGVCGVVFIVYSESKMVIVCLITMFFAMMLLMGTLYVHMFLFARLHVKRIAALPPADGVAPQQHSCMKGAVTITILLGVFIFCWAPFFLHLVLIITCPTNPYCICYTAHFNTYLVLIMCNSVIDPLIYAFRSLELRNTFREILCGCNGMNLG
Assay: cAMP assay (β-galactosidase reporter, cAMP Hunter), MC3R
Assay type: cell-based
Details: EC50(MC3R)/EC50(MC4R)
Bridge positions count the residues as written; N and C are the ends. Square brackets hold non-standard residues; d marks the D form. Peptide text beside a SMILES is read from it. hCys = N[C@@H](CCS)C(=O)O
Reported Property: Ratios of EC50 values MC ¾

CC(=O)N[C@@H](CCCNC(=N)N)C(=O)N[C@H]1CCSSC[C@@H](C(N)=O)NC(=O)[C@H](Cc2c[nH]c3ccccc23)NC(=O)[C@H](CCCNC(=N)N)NC(=O)[C@@H](Cc2ccccc2)NC(=O)[C@@H](C)NC1=O [Compound 16] (Ac-R[hCys][dA][dF]RWC-NH2; disulfide 2-7)    420
CC(=O)N[C@@H](CCCNC(=N)N)C(=O)N[C@H]1CSSC[C@@H](C(N)=O)NC(=O)[C@H](Cc2c[nH]c3ccccc23)NC(=O)[C@H](CCCNC(=N)N)NC(=O)[C@@H](Cc2ccccc2)NC(=O)[C@H](Cc2c[nH]cn2)NC(=O)[C@@H](C(C)C)NC1=O    1.19
CC(=O)N[C@@H](CCCNC(=N)N)C(=O)N[C@H]1CCSSC[C@@H](C(N)=O)NC(=O)[C@H](Cc2c[nH]c3ccccc23)NC(=O)[C@H](CCCNC(=N)N)NC(=O)[C@@H](Cc2ccccc2)NC(=O)[C@H](C)NC1=O [Compound 15] (Ac-R[hCys]A[dF]RWC-NH2; disulfide 2-7)    3.8
CC(=O)N[C@@H](CCCNC(=N)N)C(=O)N[C@H]1CSSC[C@@H](C(N)=O)NC(=O)[C@H](Cc2c[nH]c3ccccc23)NC(=O)[C@H](CCCNC(=N)N)NC(=O)[C@@H](Cc2ccccc2)NC(=O)[C@H](Cc2c[nH]cn2)NC(=O)[C@@H](CC(C)C)NC1=O    1.13
CC(=O)N[C@@H](CCCNC(=N)N)C(=O)N[C@H]1CSSC[C@@H](C(N)=O)NC(=O)[C@H](Cc2c[nH]c3ccccc23)NC(=O)[C@H](CCCNC(=N)N)NC(=O)[C@@H](Cc2ccccc2)NC(=O)[C@H](Cc2c[nH]cn2)NC(=O)[C@@H](C(C)(C)C)NC1=O    1
